measurementTarget: Human recombinant Casein Kinase 1 epsilon (CK1ε) (Homo sapiens, UniProt P49674)
Construct: purchased Millipore (Millipore Iberica S.A.U.)
Sequence (P49674 whole entry): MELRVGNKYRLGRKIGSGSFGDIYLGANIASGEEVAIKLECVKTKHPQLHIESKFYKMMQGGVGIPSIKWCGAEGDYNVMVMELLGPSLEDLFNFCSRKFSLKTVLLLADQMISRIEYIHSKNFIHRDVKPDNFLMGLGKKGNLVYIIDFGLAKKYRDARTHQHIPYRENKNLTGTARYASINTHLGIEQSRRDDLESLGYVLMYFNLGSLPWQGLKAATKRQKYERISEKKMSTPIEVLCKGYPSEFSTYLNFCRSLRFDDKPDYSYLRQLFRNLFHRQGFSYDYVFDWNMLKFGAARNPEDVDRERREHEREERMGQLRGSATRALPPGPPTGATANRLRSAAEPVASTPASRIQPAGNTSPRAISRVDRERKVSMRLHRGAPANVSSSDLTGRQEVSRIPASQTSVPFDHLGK
assayRemarks: CK-1ε Kinase-Glo assay
Assay type: biochemical
conditionContext: human recombinant enzyme; mean of two independent experiments; read-out: IC50 CK1ε (µM ± SD)
Note to self: IC50 under 8 µM means true, ties and anything higher get false.

Before answering, review these 2 worked examples.
compound	cat
O=C(Nc1nc2ccc(F)cc2s1)Nc1ccccc1O [Compound K688]	true
O=C(Nc1ccc(O)cc1)Nc1nc2ccc(Cl)cc2s1 [Compound K685]	false

Query: Hi there! Is IC50 for O=C(Nc1ccc(O)c(Cl)c1)Nc1nc2ccc(Cl)cc2s1 [Compound K691] below 8 µM, do you know?
Result: true

Query: Hi there! Is IC50 for O=C(Nc1ccc(O)c(C(=O)O)c1)Nc1nc2ccc(F)cc2s1 [Compound K692] below 8 µM, do you know?
Result: false

Query: Hi there! Is IC50 for COc1ccc(NC(=O)Nc2nc3ccc(Cl)cc3s2)cc1C(=O)O [Compound K699] below 8 µM, do you know?
Result: true

Query: Hi there! Is IC50 for O=C(Nc1nc2ccc(Cl)cc2s1)Nc1ccccc1O [Compound K689] below 8 µM, do you know?
Result: true

Query: Hi there! Is IC50 for O=C(Nc1ccc(C(=O)O)cc1)Nc1nc2ccc(Cl)cc2s1 [Compound K703] below 8 µM, do you know?
Result: true

Query: Hi there! Is IC50 for COc1ccc(NC(=O)Nc2nc3ccc(Cl)cc3s2)cc1OC [Compound K697] below 8 µM, do you know?
Result: false

Query: Hi there! Is IC50 for O=C(Nc1ccc(O)c(Cl)c1)Nc1nc2ccc(F)cc2s1 [Compound K690] below 8 µM, do you know?
Result: false

Query: Hi there! Is IC50 for O=C(Nc1cccc(O)c1)Nc1nc2ccc(F)cc2s1 [Compound K686] below 8 µM, do you know?
Result: true
